# system: Sigma non-opioid intracellular receptor 1 (Rattus norvegicus, UniProt Q9R0C9)
# Sequence (Q9R0C9 whole entry): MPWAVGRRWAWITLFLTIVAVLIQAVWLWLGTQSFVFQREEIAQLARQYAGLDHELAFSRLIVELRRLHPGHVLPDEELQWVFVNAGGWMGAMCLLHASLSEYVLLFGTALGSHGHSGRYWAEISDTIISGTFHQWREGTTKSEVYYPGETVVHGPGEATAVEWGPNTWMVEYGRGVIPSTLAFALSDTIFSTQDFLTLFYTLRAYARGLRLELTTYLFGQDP
# methodDescription: Displacement of [3H]-(+)-pentazocine from rat liver homogenate S1R incubated for 120 mins by liquid scintillation counting method
readoutKind: Ki (nM)
I only need the number, in nM, no unit after it.

Sure, the documented Ki for c1ccc2c(c1)Nc1ccccc1S2 [PHENOTHIAZINE] is 4.3

###

# system: Sigma intracellular receptor 2 (Homo sapiens)
# Sequence (Q5BJF2 whole entry): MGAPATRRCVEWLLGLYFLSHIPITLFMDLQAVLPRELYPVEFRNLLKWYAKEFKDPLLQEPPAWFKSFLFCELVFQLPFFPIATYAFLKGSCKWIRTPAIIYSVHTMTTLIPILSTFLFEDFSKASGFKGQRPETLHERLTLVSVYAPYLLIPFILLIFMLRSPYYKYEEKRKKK
# methodDescription: Binding affinity to S2R (unknown origin)
Measured Ki, listed per entry.
Numbers only; they are read as nM.

Record excerpt, results attached:
- compound: "c1ccc(CN2CCC3(CC2)OCC(c2ccccc2)CO3)cc1"
  Ki / nM: 813
- compound: "COC1Cc2ccccc2C2(CCC(N(C)CC3CCCCC3)CC2)O1 (stereo not drawn)"
  Ki / nM: 12

// Ki value for c1ccc(CN2CCC3(CCc4ccccc4S3)CC2)cc1 : 6.4
